# Test system: HCC2429 (lung cancer)
# test name: In vitro cytotoxicity (MTS), HCC2429
# Type: cell-based, human
# experimental setup: Table 13; four days; LP = lacked potency
IC50 (ng Ab/mL) ± S.E.M., HCC2429 reference
Field: numeric (ng Ab/mL). Do not append units.

INPUT: For the molecule ch75-vc0101: ch75 conjugated to vc0101 linker-payload (conjugate) VH: QVKLLQSGAALVKPGASVKMSCKASGYAFTDYWVTWVKQSHGKSLEWIGEISPNSGGTNFNEKFKGKATLTVDKSTSTAYMELSRLTSEDSAIYYCTRGEIRYNWFAYWGQGTLVTVSS VL: DIQMTQSPSSLSASVGDRVTITCKASQNVGNNIAWYQQKPGKAPKLLIYYASNRYTGVPSRFSGSGYGTDFTLTISSLQPEDFATYYCQRLYNSPFTFGGGTKVEIK , what IC50 (ng Ab/mL) ± S.E.M., HCC2429 is on record?
OUTPUT: 2112

INPUT: For the molecule ch75-mc0131 (conjugate) VH: QVKLLQSGAALVKPGASVKMSCKASGYAFTDYWVTWVKQSHGKSLEWIGEISPNSGGTNFNEKFKGKATLTVDKSTSTAYMELSRLTSEDSAIYYCTRGEIRYNWFAYWGQGTLVTVSS VL: DIQMTQSPSSLSASVGDRVTITCKASQNVGNNIAWYQQKPGKAPKLLIYYASNRYTGVPSRFSGSGYGTDFTLTISSLQPEDFATYYCQRLYNSPFTFGGGTKVEIK , what IC50 (ng Ab/mL) ± S.E.M., HCC2429 is on record?
OUTPUT: 671

meta.source: patent US9433687B2
